Tested on: A549
protocol details: Antiproliferative activity against human A549 cells after 48 hrs by MTT assay
Type: functional, cell-based
applied conditions: A549, 48 h
readout label: IC50

q: Report IC50 for COc1ccc2sc(NC(=O)Cn3cc(C(=O)C(=O)NC4CC4)c4ccccc43)nc2c1 tested on A549.
a: > 50 µM

q: // fetch A549 IC50 for Cc1ccc(-c2csc(NC(=O)Cn3cc(C(=O)C(=O)Nc4ccccc4)c4cc(Br)ccc43)n2)cc1
a: > 50 µM

q: Please tell me: IC50 of O=C(Cn1cc(C(=O)C(=O)NC2CC2)c2ccccc21)Nc1nc(-c2ccccc2)cs1 , system A549?
a: 41.8 µM

q: Provide the documented IC50 with A549 as the system for O=C(Cn1cc(C(=O)C(=O)Nc2ccccc2)c2ccccc21)Nc1nc(-c2ccccc2)cs1
a: > 50 µM

q: What is its IC50 for A549? Entry: O=C(CCn1cc(C(=O)C(=O)N2CCCCC2)c2ccccc21)Nc1nc(-c2ccccc2)cs1
a: > 50 µM

q: Can you look up IC50 on A549 for O=C(CCn1cc(C(=O)C(=O)N2CCCCC2)c2ccccc21)Nc1nccs1 ?
a: > 50 µM

q: Entry O=C(Cn1cc(C(=O)C(=O)Nc2ccccc2)c2ccccc21)Nc1nccs1 , system A549: what IC50 was measured?
a: 20.9 µM

q: Recall the recorded IC50 for O=C(Cn1cc(C(=O)C(=O)N2CCCCC2)c2ccccc21)Nc1nccs1 with A549 and state it.
a: > 50 µM

q: Notebook: pull reported IC50 for A549, entry CCOC(=O)c1nc(NC(=O)CCn2cc(C(=O)C(=O)N3CCCCC3)c3ccccc32)sc1C
a: > 50 µM

q: # value lookup — system A549, readout IC50, item COc1ccc2sc(NC(=O)Cn3cc(C(=O)C(=O)Nc4ccccc4)c4cc(Br)ccc43)nc2c1
a: > 50 µM

q: Fill in the recorded IC50 for this molecule, with A549 as test system: O=C(Cn1cc(C(=O)C(=O)NC2CC2)c2ccccc21)Nc1nccs1
a: > 50 µM

q: What IC50 appears in the records for this molecule with A549? COc1ccc2sc(NC(=O)CCn3cc(C(=O)C(=O)N4CCCCC4)c4ccccc43)nc2c1
a: > 50 µM

q: Identify the measured IC50 of COc1ccc2sc(NC(=O)Cn3cc(C(=O)C(=O)Nc4ccccc4)c4ccccc43)nc2c1 for A549.
a: 2.1 µM

q: Param readout = IC50; param system = A549; param query = COc1ccc2sc(NC(=O)Cn3cc(C(=O)C(=O)N4CCCCC4)c4ccccc43)nc2c1 ; response: value
a: > 50 µM

q: Give A549 IC50 for O=C(Cn1cc(C(=O)C(=O)Nc2ccccc2)c2cc(Br)ccc21)Nc1nccs1
a: 43.7 µM

q: Query IC50 on A549 for CCOC(=O)c1nc(NC(=O)Cn2cc(C(=O)C(=O)NC3CC3)c3ccccc32)sc1C
a: 20.9 µM

q: Param readout= IC50; system= A549; entry= CCOC(=O)c1nc(NC(=O)Cn2cc(C(=O)C(=O)N3CCCCC3)c3ccccc32)sc1C ; returns value.
a: > 50 µM

q: Hi! What's the reported IC50 for CCOC(=O)c1nc(NC(=O)Cn2cc(C(=O)C(=O)Nc3ccccc3)c3ccccc32)sc1C on A549?
a: 6.3 µM

q: Test system A549; read-out IC50; what value for O=C(Cn1cc(C(=O)C(=O)N2CCCCC2)c2ccccc21)Nc1nc(-c2ccccc2)cs1 ?
a: > 50 µM

q: Requested read-out IC50, target or system A549, entry Cc1ccc(-c2csc(NC(=O)CCn3cc(C(=O)C(=O)N4CCCCC4)c4ccccc43)n2)cc1
a: > 50 µM

* * *

Exercise: state measured inhibition for each of the compounds provided.
Species: Sus scrofa
protocol details: Inhibition of porcine brain tubulin polymerization at 5 uM measured for 1 hr by fluorescence assay relative to control
Answer as a quantity: numeral, then unit.

q: // inhibition lookup, key: COc1ccc2sc(NC(=O)Cn3cc(C(=O)C(=O)Nc4ccccc4)c4cc(Br)ccc43)nc2c1
a: 23.3%

q: For COc1ccc2sc(NC(=O)Cn3cc(C(=O)C(=O)Nc4ccccc4)c4ccccc43)nc2c1 , what is its reported inhibition?
a: 68.5%

q: Could you share which inhibition value was measured for COc1ccc2sc(NC(=O)Cn3cc(C(=O)C(=O)N4CCCCC4)c4ccccc43)nc2c1 ?
a: 38.5%

q: Using the record for CCOC(=O)c1nc(NC(=O)Cn2cc(C(=O)C(=O)NC3CC3)c3ccccc32)sc1C , report its inhibition.
a: 21.3%

q: Request the reported inhibition associated with CCOC(=O)c1nc(NC(=O)CCn2cc(C(=O)C(=O)N3CCCCC3)c3ccccc32)sc1C
a: 12.2%

q: Which inhibition value belongs to O=C(Cn1cc(C(=O)C(=O)Nc2ccccc2)c2ccccc21)Nc1nccs1 ?
a: 23.5%

q: Returns the measured inhibition for the input compound. Input: COc1cc([C@@H]2c3cc4c(cc3[C@H](O)[C@H]3COC(=O)[C@H]23)OCO4)cc(OC)c1OC
a: 78%

q: // lookup inhibition for CCOC(=O)c1nc(NC(=O)Cn2cc(C(=O)C(=O)Nc3ccccc3)c3ccccc32)sc1C
a: 58.4%

* * *

Can you tell me IC50 for the items I'm about to list?
Tested on: DU-145
protocol details: Antiproliferative activity against human DU145 cells after 48 hrs by MTT assay
Type: functional, cell-based
applied conditions: DU-145, 48 h
Write it as a number; the unit µM goes unstated.

q: Quick one: IC50 for Cc1ccc(-c2csc(NC(=O)Cn3cc(C(=O)C(=O)Nc4ccccc4)c4cc(Br)ccc43)n2)cc1 ?
a: 10.2

q: Bench note: what IC50 did COc1ccc2sc(NC(=O)CCn3cc(C(=O)C(=O)N4CCCCC4)c4ccccc43)nc2c1 show?
a: 12.3

q: Would you kindly share the measured IC50 for CCOC(=O)c1nc(NC(=O)Cn2cc(C(=O)C(=O)NC3CC3)c3ccccc32)sc1C ?
a: 4.6

q: If you can, please state the reported IC50 value of O=C(Cn1cc(C(=O)C(=O)Nc2ccccc2)c2ccccc21)Nc1nccs1 .
a: 5.15

q: Please look up its IC50: O=C(Cn1cc(C(=O)C(=O)N2CCCCC2)c2ccccc21)Nc1nc(-c2ccccc2)cs1
a: 25.4

q: What does the record list as IC50 for COc1ccc2sc(NC(=O)Cn3cc(C(=O)C(=O)NC4CC4)c4ccccc43)nc2c1 ?
a: 5.5

q: Look up IC50: O=C(Cn1cc(C(=O)C(=O)Nc2ccccc2)c2cc(Br)ccc21)Nc1nccs1
a: 25.5

q: What measured IC50 goes with O=C(Cn1cc(C(=O)C(=O)Nc2ccccc2)c2ccccc21)Nc1nc(-c2ccccc2)cs1 ?
a: 34.3

* * *

System: DU-145
protocol details: Antiproliferative activity against human DU145 cells after 48 hrs by MTT assay
Assay type: functional, cell-based
applied conditions: DU-145, 48 h
Could you please report measured IC50 for the items listed next?

q: What does the record list as IC50 for CCOC(=O)c1nc(NC(=O)CCn2cc(C(=O)C(=O)N3CCCCC3)c3ccccc32)sc1C ?
a: > 50 µM

q: Looking for the measured IC50 of O=C(CCn1cc(C(=O)C(=O)N2CCCCC2)c2ccccc21)Nc1nccs1 , can you help?
a: > 50 µM

q: Recorded IC50 for Cc1ccc(-c2csc(NC(=O)CCn3cc(C(=O)C(=O)N4CCCCC4)c4ccccc43)n2)cc1 , please?
a: > 50 µM
